# target.desc: UniProt O60674
# Sequence (O60674 808-1132): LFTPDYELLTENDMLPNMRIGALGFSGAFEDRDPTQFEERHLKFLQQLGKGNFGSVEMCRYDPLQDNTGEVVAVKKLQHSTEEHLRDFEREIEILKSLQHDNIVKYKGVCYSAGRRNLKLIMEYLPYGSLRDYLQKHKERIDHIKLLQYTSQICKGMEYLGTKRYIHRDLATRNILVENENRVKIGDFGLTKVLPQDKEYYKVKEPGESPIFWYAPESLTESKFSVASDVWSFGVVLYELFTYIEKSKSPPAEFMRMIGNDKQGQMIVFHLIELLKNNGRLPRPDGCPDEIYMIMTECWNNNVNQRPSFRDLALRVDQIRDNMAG
# experiment.description: JAK enzymatic assay (peptide mobility shift), JAK2
# conditions.used: recombinant JAK2 2 nM, JAKtide peptide, 150 minutes
Collected IC50 values appear next to each entry.
endpoint.name: IC50 (nM)

>>> experimental_result("COCCC1(C(N)=O)CCN(S(=O)(=O)C[C@H]2CC[C@H](N(C)c3ncnc4[nH]ccc34)CC2)CC1 [Example 45]")
8.97
>>> experimental_result("CN(c1ncnc2[nH]ccc12)[C@H]1CC[C@H](CS(=O)(=O)N2CCC[C@@H](O)C2)CC1 [Example 40]")
8.04
>>> experimental_result("Cc1cccc(N2CCN(S(=O)(=O)C[C@H]3CC[C@H](N(C)c4ncnc5[nH]ccc45)CC3)CC2)n1 [Example 119]")
13.7
